read-out: Plasminogen activator inhibitor-1 (PAI1), SERPINE1 (gene 5054); experiment: BSK_BE3C_PAI1: BioMAP Diversity Plus: BE3C Assay for Plasminogen activator inhibitor-1 (PAI1) Biomarker Activity (AID 2283037); settings: primary human bronchial epithelial cells; actives raise or lower the signal
Activity calls are given as the source filed them. Rule for the calls: active = hit-call score of the fitted dose curve at least 0.9, where 1 is the maximum; inactive = score below 0.9.
VALUE_KIND: AC50

- COMPOUND: "COc1cc2c(c(OC)c1OC)-c1ccc(OC)c(=O)cc1[C@@H](NC(C)=O)CC2"
  AC50: "148 nM (active)"
- COMPOUND: "NC(=O)N1c2ccccc2C=Cc2ccccc21"
  AC50: "inactive"
- COMPOUND: "OCC(CO)(CO)CO"
  AC50: "inactive"
- COMPOUND: "OC(CCl)CCl"
  AC50: "inactive"
- COMPOUND: "OCCC(F)(F)C(F)(F)C(F)(F)C(F)(F)F"
  AC50: "inactive"
- COMPOUND: "FC(F)C(F)(F)COCC1CO1 (configuration not stated)"
  AC50: "inactive"

We next turn to a different compound, shown below.
Requested field: AC50. Item: `OCc1c[nH]c2ccccc12`
71.6 nM (active)

---

read-out: Forkhead box O3 (FOXO3), FOXO3 (gene 2309); assay: LTEA_HepaRG_FOXO3: Life Technologies and Expression Analysis (LTEA) Assay for Forkhead box O3 (FOXO3) using HepaRG (AID 2283459); details: mRNA level, 48 h; actives raise or lower the signal
The source made the active and inactive calls. How the source made its calls: active means hit-call score of the fitted dose curve at least 0.9, where 1 is the maximum; inactive means score below 0.9.
Please state which outcome applies, choosing from active, inactive

For `Cc1nc(-c2ccccn2)ncc1C(=O)Nn1cc(C)c2cc(F)ccc21` , which call appears in the assay record?
inactive

Similarly, `c1ccc(C(O[C@@H]2CCCN(CCc3ccc4c(c3)OCO4)C2)c2ccccc2)cc1` ?
active

Similarly, `NNC(=O)c1ccncc1` ?
inactive

Similarly, `CC(=O)c1ccccc1` ?
inactive

Similarly, `O=S1(=O)CCCO1` ?
inactive

Similarly, `O=C(NO)C1(NS(=O)(=O)c2ccc(Oc3ccc(F)cc3)cc2)CCOCC1` ?
inactive

Similarly, `NC(=O)NN=Cc1ccc([N+](=O)[O-])o1` ?
inactive

Similarly, `CCCCCCCCCC` ?
inactive

Similarly, `COCc1nnc(-c2ccc[n+]([O-])c2)n1-c1c(Cl)c(Cl)cc2[nH]c(=O)c(=O)[nH]c12` ?
inactive

Similarly, `CCCCOC(=O)c1ccccc1` ?
inactive

Similarly, `Cc1nccn1-c1ccc(Sc2cccc(C3(C(N)=O)CCOCC3)c2)cc1` ?
inactive

Similarly, `O=C(O)[C@H](O)[C@@H](O)C(=O)O` ?
inactive

Similarly, `CC1(C)C(=O)N(Cl)C(=O)N1Cl` ?
inactive

---

read-out: catalase (CAT), CAT (gene 847); assay: LTEA_HepaRG_CAT: Life Technologies and Expression Analysis (LTEA) Assay for catalase (CAT) using HepaRG (AID 2283452); conditions: mRNA level, 48 h; actives raise or lower the signal
The source made the active and inactive calls. The calls were made as follows: active = hit-call score of the fitted dose curve at least 0.9, where 1 is the maximum; inactive = score below 0.9.
Please state which outcome applies, choosing from active, inactive

For `O=C(NO)C1(NS(=O)(=O)c2ccc(Oc3ccc(F)cc3)cc2)CCOCC1` , which call appears in the assay record?
active

Similarly, `NC(=O)N1c2ccccc2C=Cc2ccccc21` ?
inactive

Similarly, `Nc1ccn([C@@H]2O[C@H](CO)[C@@H](O)[C@@H]2O)c(=O)n1` ?
inactive

Similarly, `O=c1[nH]cnc2c1ncn2[C@H]1CC[C@@H](CO)O1` ?
inactive

Similarly, `OC[C@H]1O[C@@](CO)(O[C@H]2O[C@H](CO)[C@@H](O)[C@H](O)[C@H]2O)[C@@H](O)[C@@H]1O` ?
inactive

Similarly, `CCOc1ccc2[nH]cc(C(=O)NCc3ccccc3)c(=O)c2n1` ?
inactive

Similarly, `Cc1nccn1-c1ccc(Sc2cccc(C3(C(N)=O)CCOCC3)c2)cc1` ?
active

Similarly, `CC(C)c1nnc2ccc(-c3ocnc3-c3cc(F)ccc3F)cn12` ?
active

Similarly, `COCc1nnc(-c2ccc[n+]([O-])c2)n1-c1c(Cl)c(Cl)cc2[nH]c(=O)c(=O)[nH]c12` ?
inactive

Similarly, `Cn1cc[nH]c1=S` ?
inactive

Values from PubChem BioAssay (EPA / NIEHS)
